Molecular target: human CYP11B2 (Homo sapiens, UniProt P19099)
Construct: mitochondrial fraction
Sequence (P19099 25-503): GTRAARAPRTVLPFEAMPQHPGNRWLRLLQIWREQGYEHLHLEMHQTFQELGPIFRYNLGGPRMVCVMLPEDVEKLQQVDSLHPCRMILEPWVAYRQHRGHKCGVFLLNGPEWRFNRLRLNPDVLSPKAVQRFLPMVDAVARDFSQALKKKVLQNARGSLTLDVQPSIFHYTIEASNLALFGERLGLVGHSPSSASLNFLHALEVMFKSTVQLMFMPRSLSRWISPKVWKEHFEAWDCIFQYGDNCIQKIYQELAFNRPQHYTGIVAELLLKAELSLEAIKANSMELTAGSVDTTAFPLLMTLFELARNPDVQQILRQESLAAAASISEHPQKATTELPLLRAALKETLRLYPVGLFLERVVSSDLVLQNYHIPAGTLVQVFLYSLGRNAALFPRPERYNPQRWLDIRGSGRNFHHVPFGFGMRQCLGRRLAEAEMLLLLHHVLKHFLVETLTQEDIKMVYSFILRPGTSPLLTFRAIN
Experiment: Inhibitory effect on hCYP11B2: aldosterone production in mitochondrial fraction of V79 cells stably expressing human CYP11B2, HTRF
Settings: 0.5 μmol/L deoxycorticosterone, 150 μmol/L NADPH, 1.5-2 hours at room temperature
pIC50: −log10 of the molar value.
VALUE_KIND: pIC50

Use the examples below as a reference point.
# COMPOUND, VAL
rows = [
    ("CC(C)NC(=O)CN1CCN(c2cc(-c3ccc4ccccc4c3)cnn2)CC1", 8.08),
    ("Cc1c(-c2ccc(F)cc2)cnnc1N1CCN(CC(=O)NC(C)C)CC1", 7.08),
    ("CC1CC=C(c2cnnc(N3CCN(CC(=O)NC(C)C)CC3)c2)CC1 (stereo not drawn)", 8.04),
]

1: CC(C)(C)OC(=O)N1C2COCC1CC(NC(=O)CN1CCN(c3cncc(-c4ccc(F)cc4)c3)CC1)C2 (stereo not drawn)
2: O=C(CN1CCN(c2cc(-c3ccc(Cl)cc3)cnn2)CC1)NC1CCNCC1O (single isomer, unassigned) [Example 90b]
When the recorded pIC50 values are compared, which is smaller: that of 1 or that of 2 ? Indicate which entry you chose by stating its label.
2
(2: 7.12, 1: 7.85)
